Quick list: melting point per entry.

compound: N=C(Nc1ccccc1-c1ccccc1)N1CCCC(O)C1 (stereo not drawn)
melting point: 144 to 145 °C
//
compound: CCC(CC)c1ccc(Cl)c2nc3n(c12)CC(C)N3c1cnc(N(C)C)cc1C (stereo not drawn)
melting point: 204 to 206 °C
//
compound: COc1ccc(Oc2ccc(S(C)(=O)=O)cc2)cc1
melting point: 152 to 153 °C
//
compound: CCCCC(=O)Oc1cccc(NC(=O)CC(C)=O)c1
melting point: 65 °C
//
compound: c1ccc(N(c2ccccc2)c2ccsc2)cc1
melting point: 79 to 82 °C
//
compound: CCNC(=O)C[C@@H]1N=C(c2ccc(Cl)cc2)c2cc(OC)ccc2-n2c(C)nnc21
melting point: > 140 °C
//
compound: O=C(NN1CCCCC1)c1nc(-c2ccc(Cl)cc2Cl)c(-c2ccc(Cl)cc2)o1
melting point: 165 °C
//
compound: COc1ccc(Br)c(/C=C/c2cc(/C=C/c3ccc4cc[nH]c4c3)[nH]n2)c1
melting point: 103 to 109 °C
//
compound: Cc1cc(-c2nc3cccnn3c2-c2ccnc(NC(=O)NCCO)c2)ccc1F
melting point: 189 to 190 °C
//
compound: O=C(O)c1c(-c2ccccc2)c2cc(OCc3ccccc3)ccc2n1Cc1cc2c(cc1Cl)OCO2
melting point: 213 to 214 °C
//
compound: NOCc1ccc2c(c1)-c1n[nH]c(=O)c3cccc(c13)O2
melting point: 294 to 296 °C
//
compound: CCOC(=O)CCCCCCn1c(=O)c(=O)[nH]c2cc(Br)ccc21
melting point: 187 to 190 °C
//
compound: COc1cc(N2CCC(N3CCOCC3)C2)ccc1Nc1ncc2ccc(-c3ccccc3OC)n2n1 (stereo not drawn)
melting point: 80 to 87 °C
//
compound: Oc1ccc2ccc(F)c(F)c2c1F
melting point: 91 °C
//
compound: Cc1cc(CN2CCOCC2)cc2c1Cc1c(-c3ccsc3)n[nH]c1-2
melting point: 232 to 233 °C
//
compound: CO/C=C(/C(=O)OC)c1ccccc1Oc1ncnc(Cl)n1
melting point: 137 to 140 °C
//
compound: C#CCOC(=O)c1ccccc1C1=NC(=O)C(C)(C(C)C)N1 (stereo not drawn)
melting point: 131 to 144 °C
//
compound: CCCCCCCCC1SC(=S)SC1CCCCCCCCO (stereo not drawn)
melting point: 40 to 47 °C
//
compound: CN1C(=O)C2(CCNCC2)c2ccccc21
melting point: 146 to 151 °C
//
compound: CC(C)(C)OC(=O)N1C(=O)O[C@@H](c2ccc(F)cc2)[C@H]1Cc1ccc(C(F)(F)F)o1 (racemic)
melting point: 134 to 135 °C
//
compound: Cc1ccc2sc3cc(F)ccc3c(=O)c2c1
melting point: 159 to 165 °C
//
compound: O=C(O)Cc1cn(-c2ccccc2)c2ccccc12
melting point: 131 to 135 °C
//
compound: COc1cc(OC)c2c(=O)cc(-c3ccc(C)cc3)oc2c1C1=CCN(C)CC1
melting point: 113 to 114 °C
//
compound: O=[N+]([O-])c1ccc(CCN2CCN(c3cc(Cl)nnc3Cl)CC2)c([N+](=O)[O-])c1
melting point: 145 to 146 °C
//
compound: CCOCCOc1cc(N2C(=O)C3=C(CCCC3)C2=O)c(F)cc1C#N
melting point: 90 °C
//
compound: Cc1cc(C)n(-c2ncc(Cl)c(NC3CCCCC3)n2)n1
melting point: 90 to 99 °C
//
compound: N=C(Nc1ccc(CNC=Nc2cccs2)cc1)c1cccs1
melting point: 200 to 201 °C
//
compound: CC(NC(=O)C=Cc1ccccc1F)c1ccc2c(c1)N(C)CCC2 (stereo not drawn)
melting point: 60 to 63 °C
//
compound: CSc1ccc2c(=O)c(SC)cn(C)c2c1
melting point: 154 to 155 °C
//
compound: CCc1c(CCN2CCC(c3nsc4cc(F)ccc34)CC2)sc2c1CCN(C(C)=O)C2
melting point: 156 to 160 °C
//
compound: COc1cccc(CN2CCCCC2C(=O)O)c1 (stereo not drawn)
melting point: 186 to 187 °C
//
compound: O=c1[nH]c2c(OC3CNC3)cccc2n1Cc1ccccc1
melting point: 181 to 184 °C
//
compound: COc1c(C)cc(-c2[nH]c3ccccc3c2C)cc1C
melting point: 108 to 110 °C
//
compound: NC(Cc1ccccc1)C(=O)Nc1nc2ccccc2c(=O)o1 (stereo not drawn)
melting point: 215 to 216 °C
//
compound: O=C(O)c1ccccc1Nc1ccnn1-c1ccccn1
melting point: 216 to 218 °C
//
compound: CN1CCN(Cc2ccc(NC(=O)c3cccc4cc(Oc5cc(N)ncn5)ccc34)cc2C(F)(F)F)CC1
melting point: 127 to 130 °C
//
compound: c1cnc(NCCCNCC2CCc3ccc4c(c3O2)CCCC4)nc1 (stereo not drawn)
melting point: 57.6 °C
//
compound: N#Cc1ccc2c(c1)Sc1cc3c(cc1C=C2)CCC3
melting point: 142 to 143 °C
//
compound: CC(=NN=c1[nH]cccc1Cl)C(F)(F)F
melting point: 64 to 64.5 °C
//
compound: CCOC(=NS(C)(=O)=O)N1Cc2ccccc2-c2ccccc2C1
melting point: 136 to 138 °C
//
compound: CNC(=O)NC1CCC(OC)c2sccc21 (stereo not drawn)
melting point: 152 to 159 °C
//
compound: CP1(=O)c2ccccc2CN1c1ccccc1 (stereo not drawn)
melting point: 94 to 97 °C
//
compound: CC(c1oc2ccccc2c(=O)c1-c1cccc(F)c1)n1nc(-c2cn[nH]c2)c2c(N)ncnc21 (stereo not drawn)
melting point: 223 to 226 °C

----------
compound: COC(=O)C(C(=O)OC)c1ccc(Br)cc1[N+](=O)[O-]
melting point: 86 to 88 °C

compound: CON=C(C(=O)O)c1nc(NC=O)sc1Cl
melting point: 175 to 177 °C

compound: COc1cc2sc(=O)n(C(C)=O)c2cc1OC
melting point: 164 to 165 °C

compound: Cc1cccc(C)c1-n1cnc(N)nc1=O
melting point: 248 to 250 °C

compound: O=C(O)CCc1ccc(OCCCCc2cc(-c3ccc(C(F)(F)F)cc3)no2)cc1
melting point: 130 to 131 °C

compound: CCCCCCC(=O)N[C@@H](C(=O)OCc1ccccc1)[C@@H](C)O
melting point: 70 to 73 °C

compound: N#Cc1cnn(-c2c(Cl)cc(C(F)(F)F)cc2Cl)c1N1CCC1=O
melting point: 162 to 164 °C

compound: CCOC(=O)c1cc2c(CC)nc(CC)cc2n(Cc2ccc(-c3ccccc3-c3nnn(C(c4ccccc4)(c4ccccc4)c4ccccc4)n3)cc2)c1=O
melting point: 110 to 112 °C

compound: NS(=O)(=O)c1cc2c3c(cc([N+](=O)[O-])c2cc1[N+](=O)[O-])N(C(=O)C(F)(F)F)CC3CCl (centres undefined)
melting point: 201 to 204 °C

compound: CCOc1ncc(C(C)=O)cc1C(=O)OC
melting point: 111 to 112 °C

compound: CS(=O)(=O)c1ccc(C2=C(c3ccccc3)C(=O)C2)cc1
melting point: 139 to 140 °C

compound: ClCc1nc2ccccc2c2ccnn12
melting point: 135 to 136 °C

compound: CC1(C)OC(=C(C#N)C#N)C(C#N)=C1c1ccc(-c2cn(-c3ccccc3)nn2)cc1
melting point: 298 °C

compound: Nc1ccc(-c2ncnn2-c2ccc(Br)cc2)cc1
melting point: 128 to 130 °C

compound: CC(C)N(C)c1nccc(Oc2ccc(NC(=O)c3cc(F)cc(N4CCCCC4)c3)c3ccccc23)n1
melting point: 102 to 104 °C

compound: COCOc1cc(F)ccc1-c1cc(-c2cccc(NC(=O)CN3CCCCC3)c2)c(C#N)c(NC(=O)c2ccco2)n1
melting point: 140 to 142 °C

compound: CCN(CC)C(=O)NC1CC2c3cccc4[nH]c(CCc5ccc(OC)cc5)c(c34)CC2N(C)C1 (centres undefined)
melting point: 147 to 149 °C

compound: Cc1ncc2c(n1)-c1ccccc1C2(Cc1ccnc(F)c1)Cc1ccnc(F)c1
melting point: 114 to 115 °C

compound: Clc1ccc2nc(-c3ccccc3)cc(CCC3CCCNC3)c2c1 (centres undefined)
melting point: > 260 °C

----------
melting point values by entry

compound: C[Si]1(CC(CN)CC(=O)O)CCCCC1 (stereo not given)
melting point: 140 to 143 °C
//
compound: COC(=O)CCCc1cc2nc(Cl)ccc2n1S(=O)(=O)c1ccccc1F
melting point: 83 °C
//
compound: CCN(C(=O)C1CC1)c1cccc(-c2ccnc3ccnn23)c1
melting point: 127 to 129 °C
//
compound: C=CCNC(=O)N1CC(Oc2ccc(F)cc2)C1
melting point: 92 to 94 °C
//
compound: CN1CCC(N2C(=O)CN=C(c3ccccc3Cl)c3cc(Cl)ccc32)CC1
melting point: 146 to 147 °C
//
compound: COc1cccc2c1CC=CC2
melting point: 44.3 to 45 °C
//
compound: OCCc1ccc(Cl)cc1CO
melting point: 75 to 76 °C
//
compound: CCOC(=O)c1cc(NCc2ccccc2)c(Nc2ccccc2)c(S(=O)(=O)Nc2ccccc2)c1
melting point: 166 to 167 °C
//
compound: Cc1cccc(C2c3cc(NC(=O)CC(C)(C)C)c(C)c(C)c3OC2(C)C)c1 (stereo not given)
melting point: 156 to 157 °C
//
compound: CC(Cc1cccc2ccccc12)(Cc1cccc2ccccc12)C(=O)NC(C)(Cc1c[nH]c2ccccc12)C(=O)O (stereo not given)
melting point: 195 to 197 °C
